meta.source: patent US20220177549A1

biological target: porcine FcRn complex (porcine) (UniProt Q07717); test: SPR (Biacore 8K+), pH 5.9, 25 C; FcRn captured by anti-His, IgG as analyte; 1:1 kinetic model
Sequence (main, as listed by the source, chain 1 of 2): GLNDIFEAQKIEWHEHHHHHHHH
Sequence (Q07717 other isoform, or with tags, fused parts or gaps, chain 2 of 2): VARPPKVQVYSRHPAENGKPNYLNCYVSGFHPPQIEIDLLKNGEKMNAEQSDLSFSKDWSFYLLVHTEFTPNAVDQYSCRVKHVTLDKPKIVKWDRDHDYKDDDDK
readout_type: pKd
Bear in mind: pKd is minus log10 of a mol/L concentration; give just that figure.

| binder | value_reported |
| --- | --- |
| Porcine T286E (antibody, part only; not given: variable domains and light chain, IgG1a, not shown: another chain or arm of the molecule) Fc: GCEVAGPSVFIFPPKPKDTLMISQTPEVTCVVVDVSKEHAEVQFSWYVDGVEVHEAETRPKEEQFNSTYRVVSVLPIQHQDWLKGKEFKCKVNNVDLPAPITRTISKAIGQSREPQVYTLPPPAEELSRSKVTVTCLVIGFYPPDIHVEWKSNGQPEPEGNYRTTPPQQDVDGTFFLYSKLAVDKARWDHGETFECAVMHEALHNHYTQKSISKTQGK | 7.02 |
| Porcine A426Y (antibody, part only; not given: variable domains, light chain, IgG1a, not shown: another chain or arm of the molecule) Fc: GCEVAGPSVFIFPPKPKDTLMISQTPEVTCVVVDVSKEHAEVQFSWYVDGVEVHTAETRPKEEQFNSTYRVVSVLPIQHQDWLKGKEFKCKVNNVDLPAPITRTISKAIGQSREPQVYTLPPPAEELSRSKVTVTCLVIGFYPPDIHVEWKSNGQPEPEGNYRTTPPQQDVDGTFFLYSKLAVDKARWDHGETFECYVMHEALHNHYTQKSISKTQGK | 6.98 |
| Porcine M428Y (antibody, part only; not given: variable domains and light chain, IgG1a, not shown: another chain or arm of the molecule) Fc: GCEVAGPSVFIFPPKPKDTLMISQTPEVTCVVVDVSKEHAEVQFSWYVDGVEVHTAETRPKEEQFNSTYRVVSVLPIQHQDWLKGKEFKCKVNNVDLPAPITRTISKAIGQSREPQVYTLPPPAEELSRSKVTVTCLVIGFYPPDIHVEWKSNGQPEPEGNYRTTPPQQDVDGTFFLYSKLAVDKARWDHGETFECAVYHEALHNHYTQKSISKTQGK | 7.06 |

// sample Porcine Q309V (antibody, part only; not given: variable domains, light chain, IgG1a, not shown: another chain or arm of the molecule) Fc: GCEVAGPSVFIFPPKPKDTLMISQTPEVTCVVVDVSKEHAEVQFSWYVDGVEVHTAETRPKEEQFNSTYRVVSVLPIVHQDWLKGKEFKCKVNNVDLPAPITRTISKAIGQSREPQVYTLPPPAEELSRSKVTVTCLVIGFYPPDIHVEWKSNGQPEPEGNYRTTPPQQDVDGTFFLYSKLAVDKARWDHGETFECAVMHEALHNHYTQKSISKTQGK , its pKd was 7.47

// sample Porcine Q311V (antibody, part only; not given: variable domains and light chain, IgG1a, not shown: another chain or arm of the molecule) Fc: GCEVAGPSVFIFPPKPKDTLMISQTPEVTCVVVDVSKEHAEVQFSWYVDGVEVHTAETRPKEEQFNSTYRVVSVLPIQHVDWLKGKEFKCKVNNVDLPAPITRTISKAIGQSREPQVYTLPPPAEELSRSKVTVTCLVIGFYPPDIHVEWKSNGQPEPEGNYRTTPPQQDVDGTFFLYSKLAVDKARWDHGETFECAVMHEALHNHYTQKSISKTQGK , its pKd was 7.12

// sample Porcine Q309D (antibody, part only; not given: variable domains and light chain, IgG1a, not shown: another chain or arm of the molecule) Fc: GCEVAGPSVFIFPPKPKDTLMISQTPEVTCVVVDVSKEHAEVQFSWYVDGVEVHTAETRPKEEQFNSTYRVVSVLPIDHQDWLKGKEFKCKVNNVDLPAPITRTISKAIGQSREPQVYTLPPPAEELSRSKVTVTCLVIGFYPPDIHVEWKSNGQPEPEGNYRTTPPQQDVDGTFFLYSKLAVDKARWDHGETFECAVMHEALHNHYTQKSISKTQGK , its pKd was 7.03

// sample Porcine N434Y (antibody, part only; not given: variable domains and light chain, IgG1a, not shown: another chain or arm of the molecule) Fc: GCEVAGPSVFIFPPKPKDTLMISQTPEVTCVVVDVSKEHAEVQFSWYVDGVEVHTAETRPKEEQFNSTYRVVSVLPIQHQDWLKGKEFKCKVNNVDLPAPITRTISKAIGQSREPQVYTLPPPAEELSRSKVTVTCLVIGFYPPDIHVEWKSNGQPEPEGNYRTTPPQQDVDGTFFLYSKLAVDKARWDHGETFECAVMHEALHYHYTQKSISKTQGK , its pKd was 8.10

// sample Porcine M252Y (antibody, part only; not given: variable domains and light chain, IgG1a, not shown: another chain or arm of the molecule) Fc: GCEVAGPSVFIFPPKPKDTLYISQTPEVTCVVVDVSKEHAEVQFSWYVDGVEVHTAETRPKEEQFNSTYRVVSVLPIQHQDWLKGKEFKCKVNNVDLPAPITRTISKAIGQSREPQVYTLPPPAEELSRSKVTVTCLVIGFYPPDIHVEWKSNGQPEPEGNYRTTPPQQDVDGTFFLYSKLAVDKARWDHGETFECAVMHEALHNHYTQKSISKTQGK , its pKd was 7.01
